- Test system: UACC-257 melanoma
- Assay info: NCI tumour cell line growth inhibition, 48 h
Here, each record is paired with measured TGI data.

Consider the worked cases shown below.
CC(=O)Nc1ccc(S(=O)(=O)c2nnc(NC(C)=O)s2)cc1 :: > 100 µM
C[C@@H]1CC[C@@]2(C)OC(c3ccccc3)[C@H](CO)N2C1=O (some centres undefined) :: > 100 µM
CCOC(=O)c1c(NC(=S)Nc2ccccc2)sc2c1CCN(C)C2 :: > 100 µM
CCOC(=O)NC(=O)c1cn(CCSCCOC(=O)NCCCCCCNC(=O)OCCSCCn2cc(C(=O)NC(=O)OCC)c(=O)n(C)c2=O)c(=O)n(C)c1=O :: > 100 µM
CC(=O)C1C(=O)C(=O)N(c2ccc([N+](=O)[O-])cc2[N+](=O)[O-])C1=O (centres undefined) :: > 100 µM

Indicate the recorded TGI value for this molecule: CCOC(=O)c1cc(=O)c2cccc3c2n1CCS3
> 100 µM

Indicate the recorded TGI value for this molecule: O=C(N/C(=C\c1ccccc1)c1nc2ccccc2c(=O)o1)c1ccccc1
> 72.6 µM

Indicate the recorded TGI value for this molecule: CCCCCN(CCCCC)CCC[C@@H](C)[C@H]1CC[C@H]2[C@@H]3[C@H](OCCCN)C[C@@H]4C[C@H](OCCCN)CC[C@]4(C)[C@H]3C[C@H](OCCCN)[C@]12C
28.6 µM

Indicate the recorded TGI value for this molecule: C=C(C)CC(C(=O)O)c1ccc(C)cc1 (centres undefined)
> 100 µM

Indicate the recorded TGI value for this molecule: O=CN/C=C/c1ccccc1
> 100 µM
